test system: MCF-7 cells; assay: Mammosphere formation in MCF-7 cells; format: cell-based, human; settings: MCF-7 cells after transduction, compared to control cells
parameter.measured: mammosphere formation

[
  {
    "substance": "Sh5: shRNA, 5′-GGACCAGACCAGCTTTCA-3′ (SEQ ID NO: 16); targets the 3′ end of the β isoforms (target site or template, no part of the molecule; short hairpin RNA, only the targeted sequence is given, further chemistry not given here)",
    "experimental.value": "significantly reduced"
  },
  {
    "substance": "Sh3: shRNA, 5′-GGAGGTGCTTACACATGTT-3′ (SEQ ID NO: 14); targets the 5′ UTR of the Δ133 isoforms (α, β and γ) (target site or template, no part of the molecule; short hairpin RNA, only the targeted sequence is given, further chemistry not given here)",
    "experimental.value": "significantly reduced"
  },
  {
    "substance": "Sh4: shRNA, 5′-CTTGTGCCCTGACTTTCAA-3′ (SEQ ID NO: 15); targets the 5′ UTR of the Δ133 isoforms (α, β and γ) (target site or template, no part of the molecule; short hairpin RNA, only the targeted sequence is given, further chemistry not given here)",
    "experimental.value": "significantly reduced"
  }
]

All values here come from patent US10920198B2.
